# Tested on: DiFi (Colorectal Carcinoma)
# assay-overview: Bliss excess, mean over the matrix (fraction); higher = more synergy
Form field: Bliss excess (one value per entry).
readout-kind: Bliss excess

C=CCn1c(=O)c2cnc(Nc3ccc(N4CCN(C)CC4)cc3)nc2n1-c1cccc(C(C)(C)O)n1 [AZD1775] + C[C@@H]1COCCN1C2=NC(=NC(=C2)C3(CC3)[S@](=N)(=O)C)C4=C5C=CNC5=NC=C4 [AZD6738] (first compound max 1 µM, partner max 10 µM)
0.0242
CN(CCO)CC[C@H](CSc1ccccc1)Nc1ccc(S(=O)(=O)NC(=O)c2ccc(N3CCC([C@@H](O)c4ccccc4-c4ccc(Cl)cc4)CC3)cc2)cc1S(=O)(=O)C(F)(F)F [AZD4320] + CN(C)CCCOc1ccc(-c2ccc3ncc4c(c3c2)n(C2CCOCC2)c(=O)n4C)cn1 [AZD0156] (first compound max 1 µM, 7x7, partner max 1 µM)
0.0046
C=CCn1c(=O)c2cnc(Nc3ccc(N4CCN(C)CC4)cc3)nc2n1-c1cccc(C(C)(C)O)n1 [AZD1775] + O=C(c1cc(Cc2n[nH]c(=O)c3ccccc23)ccc1F)N1CCN(C(=O)C2CC2)CC1 [Olaparib] (first compound max 1 µM, partner max 10 µM)
-0.0145
NC1(C(=O)N[C@@H](CCO)c2ccc(Cl)cc2)CCN(c2ncnc3[nH]ccc23)CC1 [Capivasertib] + CCN(CCO)CCCOc1ccc2c(Nc3cc(CC(=O)Nc4cccc(F)c4)[nH]n3)ncnc2c1 [AZD2811] (first compound max 10 µM, 7x7, partner max 1 µM)
-0.0475
NC1(C(=O)N[C@@H](CCO)c2ccc(Cl)cc2)CCN(c2ncnc3[nH]ccc23)CC1 [Capivasertib] + COc1nnc2ccc(N3CCC(c4ccc(OCCN5CCN(C)C(=O)[C@H]5C)cc4)CC3)nn12 [AZD5153] (first compound max 10 µM, 7x7, partner max 1 µM)
-0.056

###

# Test system: K-562 (Chronic Myelogenous Leukemia)
# assay-overview: Bliss excess, mean over the matrix (fraction); higher = more synergy
readout-kind: Bliss excess

NC1(C(=O)N[C@@H](CCO)c2ccc(Cl)cc2)CCN(c2ncnc3[nH]ccc23)CC1 [Capivasertib] + C[C@@H]1COCCN1C2=NC(=NC(=C2)C3(CC3)[S@](=N)(=O)C)C4=C5C=CNC5=NC=C4 [AZD6738] (first compound max 10 µM, 7x7, partner max 10 µM)
-0.0383
Cc1cc2ncnn2cc1Nc1ncc2c(n1)n(C1CCOCC1)c(=O)n2C [AZD7648] + CN(C)CCCOc1ccc(-c2ccc3ncc4c(c3c2)n(C2CCOCC2)c(=O)n4C)cn1 [AZD0156] (first compound max 10 µM, 7x7, partner max 1 µM)
-0.0026

###

# Test system: KARPAS-45 (T-Lymphoblastic Leukemia)
# assay-overview: Bliss excess, mean over the matrix (fraction); higher = more synergy
Form field: Bliss excess (one value per entry).
readout-kind: Bliss excess

Cc1c2c(nn1C)CSCc1cc(n(C)n1)CSc1cc(c3ccccc3c1)OCCCc1c(C(=O)O)n(C)c3c-2c(Cl)ccc13 [AZD5991] + Cc1cc2ncnn2cc1Nc1ncc2c(n1)n(C1CCOCC1)c(=O)n2C [AZD7648] (first compound max 1 µM, 7x7, partner max 10 µM)
-0.0163
Cc1c2c(nn1C)CSCc1cc(n(C)n1)CSc1cc(c3ccccc3c1)OCCCc1c(C(=O)O)n(C)c3c-2c(Cl)ccc13 [AZD5991] + C[C@@H]1COCCN1C2=NC(=NC(=C2)C3(CC3)[S@](=N)(=O)C)C4=C5C=CNC5=NC=C4 [AZD6738] (first compound max 1 µM, 7x7, partner max 10 µM)
0.0077
Cc1nc(Nc2ncc(C(=O)Nc3c(C)cccc3Cl)s2)cc(N2CCN(CCO)CC2)n1 [Dasatinib] + CC(=O)Nc1cccc(-n2c(=O)n(C3CC3)c(=O)c3c(Nc4ccc(I)cc4F)n(C)c(=O)c(C)c32)c1 [Trametinib] (first compound max 2 µM, 7x7, partner max 1 µM)
0.0017
COc1cccc(OCCCN)c1-c1cc(Nc2cnc(C#N)cn2)n[nH]1 [Prexasertib] + CCc1c2c(nc3ccc(O)cc13)-c1cc3c(c(=O)n1C2)COC(=O)[C@]3(O)CC [SN-38] (first compound max 1 µM, 7x7, partner max 0.3 µM)
0.0731

###

# System: DiFi (Colorectal Carcinoma)
# assay-overview: combination Emax (second highest fraction inhibited in the dose matrix, 72 h); higher = more inhibition; extreme values may be limits of the assay
readout-kind: combination Emax

C[C@@H](c1ccc2nccn2c1)n1nnc2ncc(-c3cnn(C)c3)nc21 [Savolitinib] + CC1(C)CCC(CN2CCN(c3ccc(C(=O)NS(=O)(=O)c4ccc(NCC5CCOCC5)c([N+](=O)[O-])c4)c(Oc4cnc5[nH]ccc5c4)c3)CC2)=C(c2ccc(Cl)cc2)C1 [Venetoclax] (first compound max 1 µM, 7x7, partner max 1 µM)
0.11
COc1cc2ncnc(Nc3ccc(F)c(Cl)c3)c2cc1OCCCN1CCOCC1 [Gefitinib] + CC(C)n1c(=O)n(C)c2cnc3cc(F)c(-c4ccc(OCCCN5CCCCC5)nc4)cc3c21 [AZD1390] (first compound max 10 µM, 7x7, partner max 0.3 µM)
0.919
CN(CCO)CC[C@H](CSc1ccccc1)Nc1ccc(S(=O)(=O)NC(=O)c2ccc(N3CCC([C@@H](O)c4ccccc4-c4ccc(Cl)cc4)CC3)cc2)cc1S(=O)(=O)C(F)(F)F [AZD4320] + CN(C)CCCOc1ccc(-c2ccc3ncc4c(c3c2)n(C2CCOCC2)c(=O)n4C)cn1 [AZD0156] (first compound max 1 µM, 7x7, partner max 1 µM)
0.608

###

# Test system: LN-18 (Glioblastoma)
# assay-overview: Bliss excess, mean over the matrix (fraction); higher = more synergy
readout-kind: Bliss excess

COc1nnc2ccc(N3CCC(c4ccc(OCCN5CCN(C)C(=O)[C@H]5C)cc4)CC3)nn12 [AZD5153] + CCN(CCO)CCCOc1ccc2c(Nc3cc(CC(=O)Nc4cccc(F)c4)[nH]n3)ncnc2c1 [AZD2811] (first compound max 1 µM, 7x7, partner max 1 µM)
-0.107
COc1cccc(OCCCN)c1-c1cc(Nc2cnc(C#N)cn2)n[nH]1 [Prexasertib] + C[C@@H]1COCCN1C2=NC(=NC(=C2)C3(CC3)[S@](=N)(=O)C)C4=C5C=CNC5=NC=C4 [AZD6738] (first compound max 1 µM, 7x7, partner max 10 µM)
0.0188

###

# Test system: MOLT-16 (T-Lymphoblastic Leukemia)
# assay-overview: combination Emax (second highest fraction inhibited in the dose matrix, 72 h); higher = more inhibition; extreme values may be limits of the assay
readout-kind: combination Emax

Cc1cc2ncnn2cc1Nc1ncc2c(n1)n(C1CCOCC1)c(=O)n2C [AZD7648] + C[C@@H]1COCCN1C2=NC(=NC(=C2)C3(CC3)[S@](=N)(=O)C)C4=C5C=CNC5=NC=C4 [AZD6738] (first compound max 10 µM, 7x7, partner max 10 µM)
1
C=CCn1c(=O)c2cnc(Nc3ccc(N4CCN(C)CC4)cc3)nc2n1-c1cccc(C(C)(C)O)n1 [AZD1775] + C1CN(CCC1(C(=O)N[C@@H](CCO)C2=CC=C(C=C2)Cl)N)C3=NC=NC4=C3C=CN4 [Capivasertib] (first compound max 3 µM, partner max 3 µM)
1
CC1(C)CCC(CN2CCN(c3ccc(C(=O)NS(=O)(=O)c4ccc(NCC5CCOCC5)c([N+](=O)[O-])c4)c(Oc4cnc5[nH]ccc5c4)c3)CC2)=C(c2ccc(Cl)cc2)C1 [Venetoclax] + C=CCn1c(=O)c2cnc(Nc3ccc(N4CCN(C)CC4)cc3)nc2n1-c1cccc(C(C)(C)O)n1 [AZD1775] (first compound max 1 µM, partner max 1 µM)
1

###

Form field: combination Emax (one value per entry).
# System: NCI-H1792 (Lung Adenocarcinoma)
# assay-overview: combination Emax (second highest fraction inhibited in the dose matrix, 72 h); higher = more inhibition; extreme values may be limits of the assay
readout-kind: combination Emax

NC1(C(=O)N[C@@H](CCO)c2ccc(Cl)cc2)CCN(c2ncnc3[nH]ccc23)CC1 [Capivasertib] + C[C@@H]1COCCN1C2=NC(=NC(=C2)C3(CC3)[S@](=N)(=O)C)C4=C5C=CNC5=NC=C4 [AZD6738] (first compound max 10 µM, 7x7, partner max 10 µM)
0.767
CC(=O)c1c(C)c2cnc(Nc3ccc(N4CCNCC4)cn3)nc2n(C2CCCC2)c1=O [Palbociclib] + CC1(C)CCC(CN2CCN(c3ccc(C(=O)NS(=O)(=O)c4ccc(NCC5CCOCC5)c([N+](=O)[O-])c4)c(Oc4cnc5[nH]ccc5c4)c3)CC2)=C(c2ccc(Cl)cc2)C1 [Venetoclax] (first compound max 10 µM, 7x7, partner max 1 µM)
0.465
CN(C)CCCOc1ccc(-c2ccc3ncc4c(c3c2)n(C2CCOCC2)c(=O)n4C)cn1 [AZD0156] + O=C(c1cc(Cc2n[nH]c(=O)c3ccccc23)ccc1F)N1CCN(C(=O)C2CC2)CC1 [Olaparib] (first compound max 3 µM, partner max 3 µM)
0.267
Cc1cc2ncnn2cc1Nc1ncc2c(n1)n(C1CCOCC1)c(=O)n2C [AZD7648] + CN(C)CCCOc1ccc(-c2ccc3ncc4c(c3c2)n(C2CCOCC2)c(=O)n4C)cn1 [AZD0156] (first compound max 10 µM, 7x7, partner max 1 µM)
0.469
